Target: FGFR1 (UniProt P11362)
Sequence (P11362 whole entry, looked up): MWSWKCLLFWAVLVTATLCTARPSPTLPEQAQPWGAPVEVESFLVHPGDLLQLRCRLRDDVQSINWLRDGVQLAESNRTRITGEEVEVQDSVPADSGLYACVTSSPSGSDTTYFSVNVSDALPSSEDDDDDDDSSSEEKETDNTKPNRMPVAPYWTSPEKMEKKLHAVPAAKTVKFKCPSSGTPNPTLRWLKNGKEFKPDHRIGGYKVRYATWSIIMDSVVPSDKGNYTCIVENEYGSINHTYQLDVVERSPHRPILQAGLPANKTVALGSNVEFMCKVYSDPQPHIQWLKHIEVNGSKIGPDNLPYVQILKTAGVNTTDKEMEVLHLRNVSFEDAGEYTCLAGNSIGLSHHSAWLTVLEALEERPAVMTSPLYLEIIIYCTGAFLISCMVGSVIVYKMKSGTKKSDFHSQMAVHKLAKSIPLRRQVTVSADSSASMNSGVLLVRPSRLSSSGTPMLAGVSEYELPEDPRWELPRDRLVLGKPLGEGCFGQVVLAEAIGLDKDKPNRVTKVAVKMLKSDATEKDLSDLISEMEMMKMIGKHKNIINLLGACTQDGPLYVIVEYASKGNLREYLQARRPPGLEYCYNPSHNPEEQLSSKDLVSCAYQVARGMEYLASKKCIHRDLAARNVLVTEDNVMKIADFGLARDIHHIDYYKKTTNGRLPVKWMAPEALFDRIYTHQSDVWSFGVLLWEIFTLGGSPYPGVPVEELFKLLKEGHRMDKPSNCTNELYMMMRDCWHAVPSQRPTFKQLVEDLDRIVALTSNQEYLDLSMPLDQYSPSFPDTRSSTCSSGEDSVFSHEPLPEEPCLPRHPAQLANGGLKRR
Assay: phosphorylation enrichment, bacterial display (enrichment ratio); higher = better substrate or ligand; peptides without Tyr show the background
Is phosphorylation enrichment at least 0.6? Then YES. If not, NO.

>>> category("FSPGSNERETF [NF1_Y2192_Y2192N]")
"NO"
>>> category("QGIIIYKAAYF [SLC25A4_Y187_R188K]")
"YES"
>>> category("SSVAGYACLAF [MVD_Y131_A128V_YF]")
"NO"
>>> category("RVFRDYVLKSA [HTATIP2_Y111_D108Y_YF]")
"YES"
>>> category("LPHVIYCRLWR [SMAD2_Y128]")
"NO"
>>> category("ATYRGYDSDNP [MMUT_Y146_H143Y]")
"NO"
>>> category("KGSEGYLAATF [NF1_Y2503_YF]")
"NO"
>>> category("EAEPFYRSLRD [NPHS1_Y1139_YF]")
"NO"
>>> category("SETDDYAEIID [PTK2_Y397]")
"YES"
>>> category("EFNLMYHGTKE [IRF6_Y97_D98H]")
"NO"

---

Molecular target: EPHB2 (UniProt P29323)
Sequence (P29323 whole entry, looked up): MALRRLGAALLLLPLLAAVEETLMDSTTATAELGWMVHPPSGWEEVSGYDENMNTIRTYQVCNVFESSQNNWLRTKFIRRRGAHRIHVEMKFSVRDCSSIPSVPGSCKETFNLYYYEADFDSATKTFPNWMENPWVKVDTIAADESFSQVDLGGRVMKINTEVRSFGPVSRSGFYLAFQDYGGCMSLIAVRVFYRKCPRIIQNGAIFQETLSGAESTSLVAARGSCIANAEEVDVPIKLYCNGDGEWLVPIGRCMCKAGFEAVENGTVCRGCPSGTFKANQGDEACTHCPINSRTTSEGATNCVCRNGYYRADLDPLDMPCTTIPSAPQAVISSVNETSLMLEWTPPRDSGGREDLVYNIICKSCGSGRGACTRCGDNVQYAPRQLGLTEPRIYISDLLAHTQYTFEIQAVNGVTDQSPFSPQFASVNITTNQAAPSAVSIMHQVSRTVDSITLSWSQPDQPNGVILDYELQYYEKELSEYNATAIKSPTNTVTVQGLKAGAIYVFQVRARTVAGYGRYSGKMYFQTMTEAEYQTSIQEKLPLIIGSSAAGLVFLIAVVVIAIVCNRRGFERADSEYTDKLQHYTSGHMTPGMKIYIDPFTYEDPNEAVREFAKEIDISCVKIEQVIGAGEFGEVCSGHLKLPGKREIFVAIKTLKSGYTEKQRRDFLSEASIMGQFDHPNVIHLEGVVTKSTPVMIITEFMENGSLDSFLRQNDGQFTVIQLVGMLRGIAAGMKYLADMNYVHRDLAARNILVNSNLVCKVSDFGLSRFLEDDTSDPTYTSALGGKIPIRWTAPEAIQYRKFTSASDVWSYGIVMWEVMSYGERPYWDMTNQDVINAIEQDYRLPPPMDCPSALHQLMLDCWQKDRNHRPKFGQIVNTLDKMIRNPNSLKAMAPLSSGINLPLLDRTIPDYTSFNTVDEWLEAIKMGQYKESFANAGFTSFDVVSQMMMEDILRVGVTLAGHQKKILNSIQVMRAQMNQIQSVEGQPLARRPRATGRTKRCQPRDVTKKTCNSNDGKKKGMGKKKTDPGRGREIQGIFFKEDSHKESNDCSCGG
Assay: phosphorylation enrichment, bacterial display (enrichment ratio); higher = better substrate or ligand; peptides without Tyr show the background
phosphorylation enrichment vs 0.5: at or above is class 1, below is class 0.

>>> category("PDGREYIYVDP [PDGFRA_Y572_H570R]")
"class 1"
>>> category("PQDVTYAQLHS [LILRB4_Y412]")
"class 1"
>>> category("TVDASYCGGRG [ANTXR2_Y380_Y381C]")
"class 1"
>>> category("KNKNRYKNVLP [PTPN11_Y279_I282V]")
"class 0"
>>> category("VREIRCQGGNR [VWF_Y1570_Y1570C]")
"class 0"
>>> category("SRGLAYPARPA [LEMD2_Y122]")
"class 0"
>>> category("FGSSSSGGAGG [RPA2_Y14_Y14S_YF]")
"class 0"
>>> category("TYQYKYPEGSS [TGM4_Y440_E437Q]")
"class 1"
>>> category("EGVPLYESATT [DCC_Y809]")
"class 1"
>>> category("QLLIKYPPEEV [ZZZ3_Y670]")
"class 1"
>>> category("CTTIHYNFMCH [TP53_Y234_N239H_YF]")
"class 1"
>>> category("GTYEDYVEGLR [MYL6_Y89]")
"class 1"
>>> category("RHAASYSSDSE [REPS1_Y116]")
"class 0"
>>> category("IEELTYVIKQD [STX5_Y137_I138V]")
"class 1"
>>> category("KGEDFYCVTYH [FHL1_Y149_C153Y]")
"class 1"
>>> category("IRRWVYPLTPE [EIF2B5_Y319]")
"class 1"
>>> category("YFWDGYMPRQY [GSS_Y270_R267W]")
"class 1"
>>> category("MCTVDYLLRLQ [RYR1_Y3921_I3916M]")
"class 1"

---

Recorded SH2 binding enrichment by entry
Target: SHP2-C SH2;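 further: peptide library displayed on the E. coli surface as eCPX fusions, selected cells deep-sequenced, score is each peptide's frequency after selection divided by its frequency in the input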
Test: SH2 binding enrichment of the phosphorylated peptide, bacterial display (enrichment ratio); higher = better substrate or ligand; peptides without Tyr show the background
METRIC_NAME: SH2 binding enrichment

>>> numeric_readout("GVRYTYTIDGS [DCX_Y105_I104T]")
5.17
>>> numeric_readout("RLLVVYPWTRR [HBB_Y36_Q40R]")
0.448
>>> numeric_readout("ALKKPYGVLYK [RPF2_Y59]")
2.38
>>> numeric_readout("GPKSTYISSAA [GOLGA5_Y62]")
0.52
>>> numeric_readout("GFWPRYVKVGS [NOG_Y172_R167G]")
0.834
>>> numeric_readout("HKLSSYEFDFE [BTK_Y40_Y39S_YF]")
0.719
>>> numeric_readout("CTTIHYNFMSN [TP53_Y234_C238S_YF]")
0.835
>>> numeric_readout("ENELTYYCCKK [CD59_Y86]")
0.82
>>> numeric_readout("LEHCQYVTQKV [ALDOB_Y204_E207Q]")
1.18
>>> numeric_readout("ERTIEYLEEVV [HADHA_Y239_A244V]")
0.594
>>> numeric_readout("DKANRYFSPNV [PTEN_Y336_F341V]")
0.839
>>> numeric_readout("PPVVNYEQDAR [FER_Y402_E404Q]")
0.826
>>> numeric_readout("DSNLIYSQIWS [FCRL3_Y662_P660L]")
0.951
>>> numeric_readout("SSSNPYSTVTV [ACTN2_Y599_M604V]")
12.3
>>> numeric_readout("TKDTFYQQPMF [GBA_Y451_K452Q]")
0.637
>>> numeric_readout("YQKDVYDIPPS [NEDD9_Y177]")
0.531
>>> numeric_readout("EGNERYEGFCV [GRIA3_Y451_YF]")
0.66
>>> numeric_readout("SVVVPYKPPEV [TP53_Y220_E221K]")
0.599
>>> numeric_readout("YQGGTYSKACT [FGG_Y380_S384C]")
1.03
>>> numeric_readout("YRVAGYKTQGG [TIA1_Y383_E384K]")
0.553
>>> numeric_readout("PVQAVYQKVVA [HBB_Y131_A130V]")
1.01
>>> numeric_readout("GCVRMYELVHR [GLE1_Y135]")
0.908
>>> numeric_readout("INNIDYYKKTT [FGFR2_Y656]")
0.364
>>> numeric_readout("GVTLLCYGRYN [ADGRD1_Y85_Y85C]")
0.806
>>> numeric_readout("ETLLYYGYRRS [POR_Y564_C566Y]")
1
>>> numeric_readout("DPYHVYIKNRV [KCNE3_Y95]")
0.762
>>> numeric_readout("HLEKKYVRRDS [CSF1R_Y708]")
1.25
>>> numeric_readout("ADFPDCKFRPR [SOX11_Y116_Y116C_YF]")
0.996
>>> numeric_readout("GFPVHYTDVSN [DNMT3B_Y815]")
7.67
>>> numeric_readout("DAHFTYSRFPW [LY75_Y888_D884A_YF]")
0.942
>>> numeric_readout("RPPFTYATLIR [FOXP3_Y342]")
6.22
>>> numeric_readout("DYLEKYYKFGS [NNMT_Y24]")
0.727
>>> numeric_readout("RLSELYLRRNR [CFAP410_Y68]")
0.585
>>> numeric_readout("RRGTRYMSSRP [RPL21_Y13_F15S]")
0.533
>>> numeric_readout("PASWTYVRWFD [PTDSS1_Y274]")
1.65
>>> numeric_readout("LAVPLYKNGVK [CPS1_Y1069]")
0.708
>>> numeric_readout("KGERGYPGTPG [COL4A1_Y348]")
0.77
>>> numeric_readout("EFNLMYHGTKE [IRF6_Y97_D98H]")
0.784
>>> numeric_readout("EPYEVYRIVPE [IRF8_Y110_K108E]")
0.758
>>> numeric_readout("NELTFYCCKKD [CD59_Y87_YF]")
0.707
>>> numeric_readout("CTLTHYKSAVK [ASNS_Y555_R550C]")
0.682
>>> numeric_readout("GMTLSYLFWEP [NDUFS8_Y74_R77W]")
0.916
>>> numeric_readout("KINKMYSDHAM")
0.602
>>> numeric_readout("GIVEDYRPRFY [ACVRL1_Y421_P424R]")
0.757
>>> numeric_readout("AGTILYHAHLG [ASS1_Y291_D296G]")
0.543
>>> numeric_readout("ELAINYQEQAS [SLC9A9_Y591]")
0.556
>>> numeric_readout("DRLAVYIDRVR [LMNA_Y45]")
0.861
>>> numeric_readout("SEPSGYQDNIA [DES_Y363_A360P]")
0.92
>>> numeric_readout("SYNNKYGMVAQ [APOB_Y276_K273N]")
0.555
>>> numeric_readout("KDFTKYVAYIE [KDM4B_Y31_N29T]")
2.42
>>> numeric_readout("DFFDLYGGKKF [PTPN11_Y66_E69K_YF]")
0.775

---

Reported phosphorylation enrichment values for a set of sequences
Target: Hck (UniProt P08631)
Sequence (P08631 whole entry, looked up): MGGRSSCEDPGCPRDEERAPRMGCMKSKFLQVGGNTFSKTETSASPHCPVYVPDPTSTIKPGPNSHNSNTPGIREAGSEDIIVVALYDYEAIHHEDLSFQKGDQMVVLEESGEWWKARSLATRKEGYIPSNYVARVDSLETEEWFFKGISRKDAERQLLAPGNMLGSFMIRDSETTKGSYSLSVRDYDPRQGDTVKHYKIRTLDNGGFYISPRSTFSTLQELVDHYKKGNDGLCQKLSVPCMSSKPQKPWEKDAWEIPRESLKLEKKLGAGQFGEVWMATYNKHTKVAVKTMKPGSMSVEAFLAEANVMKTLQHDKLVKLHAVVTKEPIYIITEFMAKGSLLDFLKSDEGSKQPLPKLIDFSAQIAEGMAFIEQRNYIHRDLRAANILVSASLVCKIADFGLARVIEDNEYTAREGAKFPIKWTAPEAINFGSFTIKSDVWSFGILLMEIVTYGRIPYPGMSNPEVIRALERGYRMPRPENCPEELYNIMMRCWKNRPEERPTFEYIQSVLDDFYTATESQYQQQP
Assay: phosphorylation enrichment, bacterial display (enrichment ratio); higher = better substrate or ligand; peptides without Tyr show the background
METRIC_NAME: phosphorylation enrichment

>>> numeric_readout("SLAARYYNWVS [FLT4_Y1230]")
0.569
>>> numeric_readout("LTERDYSFVTT [ACTG2_Y199_G198D]")
1.62
>>> numeric_readout("KDFTKYVAFIE [KDM4B_Y31_N29T_YF]")
0.462
>>> numeric_readout("VSGIPYSQPKQ [NEU1_Y251_G252S]")
0.358
>>> numeric_readout("HCFAAYFQQGD [GPI_Y351_R347C]")
0.748
>>> numeric_readout("IEDNEYTAREG [HCK_Y411]")
0.588
>>> numeric_readout("QLLIKYPPEEV [ZZZ3_Y670]")
0.566
>>> numeric_readout("RTIPDYTSFNT [EPHB2_Y912]")
0.561
>>> numeric_readout("SSDKVCAHQMV [MLH1_Y379_Y379C]")
0.4
>>> numeric_readout("CTTIHYNFMCD [TP53_Y234_N239D_YF]")
0.481
>>> numeric_readout("HRGFLYLAIEY [TEK_Y899_Y897F]")
0.743
>>> numeric_readout("GLDGRYLLRDS [SH2D1A_Y29_S28R]")
0.395
>>> numeric_readout("RQRTAYFSLDT [CDH1_Y68]")
0.357
>>> numeric_readout("GNYSGYDDAWD [POLR1C_Y36]")
0.578
>>> numeric_readout("EGVPLYESATT [DCC_Y809]")
2.05
>>> numeric_readout("TFWKKYRTFWK [CCDC70_Y125]")
0.371
>>> numeric_readout("TLMNAYSSRSH [KIF11_Y231]")
0.516
>>> numeric_readout("NFRTTCVNANE [KCNH2_Y475_Y475C]")
0.483
>>> numeric_readout("QKMFDYLKEKK [RYR2_Y3780_L3778F]")
0.471
>>> numeric_readout("ELCSEYHKSRK [SPINK5_Y440_R441H]")
0.442
>>> numeric_readout("GVRYTYTIDGS [DCX_Y105_I104T]")
0.483

Data provenance: the supplement of paper PMC10065799
